- PROTOCOL NOTES: protein stability index of a GFP-peptide fusion (GPS, HEK-293T) (PSI 1-6); higher = more stable;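 further: 24-mer peptide tiles fused after GFP, lentivirally expressed, FACS-sorted into six equal bins by GFP/DsRed ratio, decoded by Illumina sequencing, PSI is the read-weighted mean bin number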
- CONDITIONS: treatment: MLN4924 1 uM, 8 h; c terminus: a fixed tail appended
Recorded protein stability index by entry
Would you mind answering with just the numeric figure?

Example cases with answers are listed next.
SEQUENCE: EEEEEEEGSGHSTGEDSAFQEPDS [WEE1]
VALUE MEASURED: 5.62
//
SEQUENCE: GTTLVVGLLAGVGYFAFMLFRKRL [GDAP1]
VALUE MEASURED: 2.63
//
SEQUENCE: TSIQWKNHDQNNHNTDRSSHKDSM [EDNRA]
VALUE MEASURED: 5.14
//
SEQUENCE: GGFGSMLRALGAQIEKTTNREACR [SDE2]
VALUE MEASURED: 3.34
//
SEQUENCE: IEREHLIQLRRWQETRGELQCRSP [TBC1D10A]
VALUE MEASURED: 3.82
//
SEQUENCE: AMPDPTVPDSDIKALTTLCDLADR [ESRRG]
VALUE MEASURED: 5.15

Would you kindly look at the next entry?
Form: sequence = PSPPAAPSVADNLLASSDAALSAS [SERTAD1] ; protein stability index = 5.25
